target: Protein LANA1 (Human herpesvirus 8 type P (isolate GK18)) (UniProt Q9QR71); assay: blockers of LANA interaction with H2A/H2B – biochemical, FP readout, HTS, primary screen (AID 2629); conditions: cell-free LANA-H2A/H2B peptide, fluorescence polarization, hits give high values, concentration not given here
Sequence (Q9QR71 whole entry, looked up): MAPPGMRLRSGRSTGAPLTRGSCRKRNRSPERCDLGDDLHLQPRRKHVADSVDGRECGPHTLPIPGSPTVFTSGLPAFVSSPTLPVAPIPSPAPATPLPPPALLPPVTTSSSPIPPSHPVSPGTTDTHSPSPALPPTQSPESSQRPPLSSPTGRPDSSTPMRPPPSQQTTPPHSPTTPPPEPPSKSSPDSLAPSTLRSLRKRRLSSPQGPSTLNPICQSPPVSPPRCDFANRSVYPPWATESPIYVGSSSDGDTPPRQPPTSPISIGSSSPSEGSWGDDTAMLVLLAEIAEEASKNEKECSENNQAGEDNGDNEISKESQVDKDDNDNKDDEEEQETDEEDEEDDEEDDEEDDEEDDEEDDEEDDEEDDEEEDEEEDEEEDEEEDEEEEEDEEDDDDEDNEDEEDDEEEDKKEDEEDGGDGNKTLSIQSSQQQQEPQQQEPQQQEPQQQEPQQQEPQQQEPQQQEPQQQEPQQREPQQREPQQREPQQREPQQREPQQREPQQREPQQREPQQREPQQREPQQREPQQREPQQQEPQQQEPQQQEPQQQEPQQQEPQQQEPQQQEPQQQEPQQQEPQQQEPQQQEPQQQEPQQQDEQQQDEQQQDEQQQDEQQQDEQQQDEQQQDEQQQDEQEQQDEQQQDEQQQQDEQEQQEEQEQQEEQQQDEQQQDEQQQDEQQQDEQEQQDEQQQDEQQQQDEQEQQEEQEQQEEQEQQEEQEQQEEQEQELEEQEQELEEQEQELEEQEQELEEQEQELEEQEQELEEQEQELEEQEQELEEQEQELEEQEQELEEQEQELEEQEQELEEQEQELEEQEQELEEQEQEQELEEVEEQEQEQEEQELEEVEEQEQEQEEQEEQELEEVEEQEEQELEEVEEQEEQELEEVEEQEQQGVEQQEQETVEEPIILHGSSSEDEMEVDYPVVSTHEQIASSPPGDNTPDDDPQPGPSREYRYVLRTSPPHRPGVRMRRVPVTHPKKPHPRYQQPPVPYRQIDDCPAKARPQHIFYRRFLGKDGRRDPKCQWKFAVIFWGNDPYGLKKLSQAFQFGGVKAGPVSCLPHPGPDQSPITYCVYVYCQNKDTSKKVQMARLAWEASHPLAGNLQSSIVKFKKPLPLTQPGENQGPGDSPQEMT
Among all 320,000 compounds or so, about 1,900 (0.59%) were called active. The full list was thinned out, with actives kept by preference.
experimental.readout: inhibition

Solved entries:
{"columns": ["molecule", "measured.result"],
 "data": [
  ["O=S(=O)(NC1CC1)c1ccc2c3c(cccc13)CC2", "-8.67% (inactive)"],
  ["Oc1ccc(-c2[nH]ncc2-c2nc3ccccc3s2)c(O)c1", "3.42% (inactive)"],
  ["OC1CSc2nc3ccccc3n2C1 (centres undefined)", "0.181% (inactive)"],
  ["COC(=O)Cc1csc(/N=C/c2c(O)n(-c3cccc(C(F)(F)F)c3)c(=O)c3ccccc23)n1", "-3.9% (inactive)"],
  ["Cc1ccc(NS(=O)(=O)c2ccc(C(C)C)cc2)cc1S(=O)(=O)N1CCOCC1", "-10.5% (inactive)"]
]}

INPUT: Using the record for O=C(Cc1ccc(-c2ccccc2)cc1)NC(c1ccccc1)c1ccccc1 , report its inhibition.
OUTPUT: 3.99% (inactive)

INPUT: Using the record for CNc1nccc(-c2ccc(Cl)cc2)c1C#N , report its inhibition.
OUTPUT: -1.28% (inactive)

INPUT: Using the record for CCOc1ccc(NC(=O)CN(C)C(=O)c2c(C)noc2C)cc1OCC , report its inhibition.
OUTPUT: -1.42% (inactive)

INPUT: Using the record for CC(C(=O)N1CCc2ccccc21)N(C)CC(=O)Nc1ccc(F)cc1 (centres undefined) , report its inhibition.
OUTPUT: 4.45% (inactive)

INPUT: Using the record for CCN1C(=O)[C@H]2[C@@H](c3ccc(C)cc3)N3C(=O)N(c4cccc(Br)c4)C(=O)[C@@]3(CC)[C@H]2C1=O , report its inhibition.
OUTPUT: -2.34% (inactive)

INPUT: Using the record for COc1ccc(N2CCN(Cc3ccc(Br)s3)CC2)cc1 , report its inhibition.
OUTPUT: 0.937% (inactive)

INPUT: Using the record for COc1ccc(C2=CC(c3cccc(OC)c3)n3nnnc3N2)cc1 (centres undefined) , report its inhibition.
OUTPUT: -1.03% (inactive)

INPUT: Using the record for Cc1ccc(S(=O)(=O)N2CCC(Oc3ccc(-n4cnnn4)cc3)CC2)cc1 , report its inhibition.
OUTPUT: -4.09% (inactive)

INPUT: Using the record for Cc1cc(Nc2cc(N3CCN(C)CC3)nc(Sc3ccc(NC(=O)C4CC4)cc3)n2)n[nH]1 , report its inhibition.
OUTPUT: 1.71% (inactive)

INPUT: Using the record for CC(O)c1ccc(OCCN(C)c2ccccn2)cc1 (centres undefined) , report its inhibition.
OUTPUT: 0.184% (inactive)

INPUT: Using the record for CC1(C)CCc2nc(SCc3ccccc3)c(C#N)cc2C1 , report its inhibition.
OUTPUT: -3.11% (inactive)

INPUT: Using the record for O=C(NNC(=O)c1cnccc1C(F)(F)F)c1ccc(Cl)cc1 , report its inhibition.
OUTPUT: 1.78% (inactive)

INPUT: Using the record for COc1cccc(N(C(=O)c2ccn[nH]2)C2(C(=O)Nc3c(C)cccc3C)CCCCC2)c1 , report its inhibition.
OUTPUT: 83.6% (active)

INPUT: Using the record for COc1ccc2oc(=N)c(C(=O)Nc3ccc(Br)cc3)cc2c1 , report its inhibition.
OUTPUT: 1.77% (inactive)

INPUT: Using the record for Cc1cccc(C)c1NC(=O)C1(N(C(=O)c2ccccn2)c2ccc(O)cc2)CCCCC1 , report its inhibition.
OUTPUT: -0.134% (inactive)

INPUT: Using the record for O=C(/C=C/c1ccc(F)cc1)NC(=S)NNC(=O)c1cccnc1 , report its inhibition.
OUTPUT: 1% (inactive)

INPUT: Using the record for O=C(O)Cc1ccc(-c2ccccc2)cc1 , report its inhibition.
OUTPUT: 54.5% (active)
